Test system: Rhizopus microsporus var. rhizopodiformis
experiment summary: Antimicrobial activity against Rhizopus microsporus var. rhizopodiformis after 24 hrs
Assay type: functional
Assignment: determine reported MIC50 for the given compounds.
Give your result in µg/mL as a bare value.

Give me measured MIC50, please, for this compound: CCC(C)n1ncn(-c2ccc(N3CCN(c4ccc(OC[C@H]5CO[C@](Cn6cncn6)(c6ccc(Cl)cc6Cl)O5)cc4)CC3)cc2)c1=O (some centres undefined) 0.5

Give me measured MIC50, please, for this compound: CC[C@@H]([C@H](C)O)n1ncn(-c2ccc(N3CCN(c4ccc(OC[C@@H]5CO[C@@](Cn6cncn6)(c6ccc(F)cc6F)C5)cc4)CC3)cc2)c1=O 0.25

Give me measured MIC50, please, for this compound: C[C@@H]1[C@H](O)[C@@H](C)/C=C/C=C/C=C/C=C/C=C/C=C/C=C/[C@H](O[C@@H]2O[C@H](C)[C@@H](O)[C@H](N)[C@@H]2O)C[C@@H]2O[C@](O)(C[C@@H](O)C[C@@H](O)[C@H](O)CC[C@@H](O)C[C@@H](O)CC(=O)O[C@H]1C)C[C@H](O)[C@H]2C(=O)O 0.25
